B1: mRNA-splicing (parent)
chain: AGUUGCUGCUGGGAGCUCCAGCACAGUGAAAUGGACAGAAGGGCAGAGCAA

Variants of: B1
assay-notes: exon inclusion enrichment index; higher = more inclusion; WT1 exon 5 minigene, HEK293
Listed here are variants together with their documented exon inclusion enrichment index.
Number only, no unit.

> print(dat)
                      change                         quantity  reading
1  G5A C6G U7G C9A C19A A20C  exon inclusion enrichment index  0.00131
2  G5C C6A U7C G8A U10A G28C  exon inclusion enrichment index   0.0496
3  G5C C6U G8C C9U U10C G12A  exon inclusion enrichment index    0.889
4                        U7A  exon inclusion enrichment index    0.394
5      G5U G8U C9U G41A G42A  exon inclusion enrichment index    0.107

Enquiry: Name the reported exon inclusion enrichment index value associated with the variant U32G
Return: 0.0106

Enquiry: Same question for G5A C6G U7G C9A A20C G21C please.
Return: 0.000907

Enquiry: Same question for G5C C6U G8C C9U U10C C24U A25G please.
Return: 3.05
